Each recorded value in this set is attributed to ChEMBL document CHEMBL1201862.

Listing of recorded IC50 by entry.
Molecular target: Caspase-3 (Homo sapiens, UniProt P42574);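 note: Dose-response selectivity test against caspase-3 for candidate inhibitors of sentrin-specific proteases (SENPs)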
Sequence (P42574 whole entry): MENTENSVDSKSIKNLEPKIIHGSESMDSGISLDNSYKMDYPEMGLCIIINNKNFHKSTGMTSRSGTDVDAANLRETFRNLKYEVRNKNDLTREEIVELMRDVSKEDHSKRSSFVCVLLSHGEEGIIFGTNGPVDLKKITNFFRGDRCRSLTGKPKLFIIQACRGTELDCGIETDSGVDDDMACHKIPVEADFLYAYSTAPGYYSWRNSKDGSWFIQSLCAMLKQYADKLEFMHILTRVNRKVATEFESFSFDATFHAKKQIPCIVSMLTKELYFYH
Assay type: functional
Calls of active or inactive are those of the source.

Check out these entries, answers already filled in.
{"compound": "O=C(c1ccccc1)c1ccc(Cn2cc(-c3ccccc3)nn2)cc1", "endpoint": "IC50", "observed.result": "32.3 µM (active)"}
{"compound": "COC(=O)c1ccccc1NC1=C/C(=N\\S(=O)(=O)c2cccs2)c2ccccc2C1=O", "endpoint": "IC50", "observed.result": "68.4 µM (active)"}
{"compound": "O=C(OCC(=O)N1CCN(c2ccccc2)CC1)c1ccc([N+](=O)[O-])s1", "endpoint": "IC50", "observed.result": "10.2 µM (active)"}
{"compound": "C=C(C)C(O)CC/C(C)=C/Cc1c(O)ccc(C(=O)/C=C/c2ccc(O)cc2)c1O (configuration not stated)", "endpoint": "IC50", "observed.result": "28.1 µM (active)"}
{"compound": "CCCCCc1ccc(-c2ccc(/C=C/C(=O)O)cc2)nc1", "endpoint": "IC50", "observed.result": "35.4 µM (active)"}
{"compound": "Cc1cc(C)c[n+](C2=C([N-]S(=O)(=O)c3cccs3)C(=O)c3ccccc3C2=O)c1", "endpoint": "IC50", "observed.result": "81.9 µM (active)"}

Tell me the measured IC50 of `Cc1ccccc1NS(=O)(=O)c1cccc(C(=O)Nc2cccc(C(=O)O)c2)c1` , please.
66.7 µM (active)
